# Test system: NCI-H520
# run_description: relative viability (nuclei count vs DMSO), 5 days (fraction); higher = more cells survive
# condition_label: first compound 0.4 µM
Listed here: items and their measured relative viability.
endpoint_label: relative viability

molecule	numeric_value
COc1cc(N2CCC(C(N)=O)CC2)ccc1Nc1nc(N)c(Cl)c(Nc2ccccc2S(=O)(=O)C(C)C)n1 [HG-5-88-01] + Nc1nc2[nH]cc(CCc3ccc(C(=O)N[C@@H](CCC(=O)O)C(=O)O)cc3)c2c(=O)[nH]1 [Pemetrexed] (partner 0.2 µM)	0.454
COc1cc(N2CCC(C(N)=O)CC2)ccc1Nc1nc(N)c(Cl)c(Nc2ccccc2S(=O)(=O)C(C)C)n1 [HG-5-88-01] + CCNC(=O)c1noc(-c2cc(C(C)C)c(O)cc2O)c1-c1ccc(CN2CCOCC2)cc1 [Luminespib] (partner 0.01 µM)	0.197
COc1cc(N2CCC(C(N)=O)CC2)ccc1Nc1nc(N)c(Cl)c(Nc2ccccc2S(=O)(=O)C(C)C)n1 [HG-5-88-01] + C[C@]1(O)C[C@@H](c2nc(-c3ccc4ccc(-c5ccccc5)nc4c3)c3c(N)nccn32)C1 [Linsitinib] (partner 1 µM)	0.689
Clc1ccc(Nc2nnc(Cc3ccncc3)c3ccccc23)cc1 [Vatalanib] + CC(=O)Nc1cccc(-n2c(=O)n(C3CC3)c(=O)c3c(Nc4ccc(I)cc4F)n(C)c(=O)c(C)c32)c1 [Trametinib] (partner 0.02 µM)	0.766

* * *

# Test system: NCI-H23
# run_description: relative viability (nuclei count vs DMSO), 5 days (fraction); higher = more cells survive
# condition_label: first compound 0.8 µM
endpoint_label: relative viability

molecule	endpoint_label	numeric_value
CCCCCCCCCCCC1=C(O)C(=O)C=C(O)C1=O [Embelin] + Nc1ncn([C@H]2C[C@H](O)[C@@H](CO)O2)c(=O)n1 [Decitabine] (partner 2 µM)	relative viability	0.37
CCCCCCCCCCCC1=C(O)C(=O)C=C(O)C1=O [Embelin] + Cc1nc(Nc2ncc(C(=O)Nc3c(C)cccc3Cl)s2)cc(N2CCN(CCO)CC2)n1 [Dasatinib] (partner 0.075 µM)	relative viability	0.755
CCCCCCCCCCCC1=C(O)C(=O)C=C(O)C1=O [Embelin] + CC(=O)Nc1cccc(-n2c(=O)n(C3CC3)c(=O)c3c(Nc4ccc(I)cc4F)n(C)c(=O)c(C)c32)c1 [Trametinib] (partner 0.02 µM)	relative viability	0.476
CCCCCCCCCCCC1=C(O)C(=O)C=C(O)C1=O [Embelin] + CC1(C)CCC(c2ccc(Cl)cc2)=C(CN2CCN(c3ccc(C(=O)NS(=O)(=O)c4ccc(N[C@H](CCN5CCOCC5)CSc5ccccc5)c(S(=O)(=O)C(F)(F)F)c4)cc3)CC2)C1 [Navitoclax] (partner 0.5 µM)	relative viability	0.904
CCCCCCCCCCCC1=C(O)C(=O)C=C(O)C1=O [Embelin] + Cc1cc(Nc2cc(N3CCN(C)CC3)nc(Sc3ccc(NC(=O)C4CC4)cc3)n2)n[nH]1 [Tozasertib] (partner 0.1 µM)	relative viability	0.462
CCCCCCCCCCCC1=C(O)C(=O)C=C(O)C1=O [Embelin] + Nc1nc2[nH]cc(CCc3ccc(C(=O)N[C@@H](CCC(=O)O)C(=O)O)cc3)c2c(=O)[nH]1 [Pemetrexed] (partner 0.2 µM)	relative viability	0.675

* * *

# Test system: NCI-H2009
# run_description: relative viability (nuclei count vs DMSO), 5 days (fraction); higher = more cells survive
# condition_label: first compound 0.1265 µM
endpoint_label: relative viability

compound	target_of_assay	numeric_value
C[C@@H]1CN(CC(=O)Nc2ccc3c(c2)Cc2cccc(-c4cc(=O)cc(N5CCOCC5)o4)c2S3)C[C@H](C)O1 + Nc1nc2[nH]cc(CCc3ccc(C(=O)N[C@@H](CCC(=O)O)C(=O)O)cc3)c2c(=O)[nH]1 [Pemetrexed] (partner 0.2 µM)	NCI-H2009	0.968
COc1cc(N2CCC(C(N)=O)CC2)ccc1Nc1nc(N)c(Cl)c(Nc2ccccc2S(=O)(=O)C(C)C)n1 [HG-5-88-01] + COc1cc2c(Oc3ccc(NC(=O)C4(C(=O)Nc5ccc(F)cc5)CC4)cc3F)ccnc2cc1OCCCN1CCOCC1 [Foretinib] (partner 0.25 µM)	NCI-H2009	1.25
COc1cc(N2CCC(C(N)=O)CC2)ccc1Nc1nc(N)c(Cl)c(Nc2ccccc2S(=O)(=O)C(C)C)n1 [HG-5-88-01] + Nc1ncn([C@H]2C[C@H](O)[C@@H](CO)O2)c(=O)n1 [Decitabine] (partner 2 µM)	NCI-H2009	0.384
C[C@@H]1CN(CC(=O)Nc2ccc3c(c2)Cc2cccc(-c4cc(=O)cc(N5CCOCC5)o4)c2S3)C[C@H](C)O1 + CS(=O)(=O)CCNCc1ccc(-c2ccc3ncnc(Nc4ccc(OCc5cccc(F)c5)c(Cl)c4)c3c2)o1 [Lapatinib] (partner 2 µM)	NCI-H2009	0.846
C[C@@H]1CN(CC(=O)Nc2ccc3c(c2)Cc2cccc(-c4cc(=O)cc(N5CCOCC5)o4)c2S3)C[C@H](C)O1 + CC(=O)c1c(C)c2cnc(Nc3ccc(N4CCNCC4)cn3)nc2n(C2CCCC2)c1=O [Palbociclib] (partner 0.5 µM)	NCI-H2009	0.214
Clc1ccc(Nc2nnc(Cc3ccncc3)c3ccccc23)cc1 [Vatalanib] + N=C(N)NC(=N)NCCc1ccccc1 [Phenformin] (partner 250 µM)	NCI-H2009	0.439
C[C@@H]1CN(CC(=O)Nc2ccc3c(c2)Cc2cccc(-c4cc(=O)cc(N5CCOCC5)o4)c2S3)C[C@H](C)O1 + CC1(C)CCC(c2ccc(Cl)cc2)=C(CN2CCN(c3ccc(C(=O)NS(=O)(=O)c4ccc(N[C@H](CCN5CCOCC5)CSc5ccccc5)c(S(=O)(=O)C(F)(F)F)c4)cc3)CC2)C1 [Navitoclax] (partner 0.5 µM)	NCI-H2009	1.1
C[C@@H]1CN(CC(=O)Nc2ccc3c(c2)Cc2cccc(-c4cc(=O)cc(N5CCOCC5)o4)c2S3)C[C@H](C)O1 + Nc1ncn([C@H]2C[C@H](O)[C@@H](CO)O2)c(=O)n1 [Decitabine] (partner 2 µM)	NCI-H2009	0.363

* * *

Reported relative viability is given for each of the following molecules.
# System: NCI-H1299
# run_description: relative viability (nuclei count vs DMSO), 5 days (fraction); higher = more cells survive
# condition_label: first compound 4 µM

molecule	relative viability
COc1cc(N2CCC(C(N)=O)CC2)ccc1Nc1nc(N)c(Cl)c(Nc2ccccc2S(=O)(=O)C(C)C)n1 [HG-5-88-01] + CS(=O)(=O)N1CCN(Cc2cc3nc(-c4cccc5[nH]ncc45)nc(N4CCOCC4)c3s2)CC1 [Pictilisib] (partner 1 µM)	0.682
Clc1ccc(Nc2nnc(Cc3ccncc3)c3ccccc23)cc1 [Vatalanib] + COc1cc2c(Oc3ccc(NC(=O)C4(C(=O)Nc5ccc(F)cc5)CC4)cc3F)ccnc2cc1OCCCN1CCOCC1 [Foretinib] (partner 0.25 µM)	1.11
C[C@@H]1CN(CC(=O)Nc2ccc3c(c2)Cc2cccc(-c4cc(=O)cc(N5CCOCC5)o4)c2S3)C[C@H](C)O1 + CS(=O)(=O)CCNCc1ccc(-c2ccc3ncnc(Nc4ccc(OCc5cccc(F)c5)c(Cl)c4)c3c2)o1 [Lapatinib] (partner 2 µM)	0.816
Clc1ccc(Nc2nnc(Cc3ccncc3)c3ccccc23)cc1 [Vatalanib] + Cc1nc(NC(=O)N2CCC[C@H]2C(N)=O)sc1-c1ccnc(C(C)(C)C(F)(F)F)c1 [Alpelisib] (partner 2 µM)	1.04

* * *

# Test system: NCI-H727
# run_description: relative viability (nuclei count vs DMSO), 5 days (fraction); higher = more cells survive
# condition_label: first compound 4 µM
Reported relative viability values follow for various compounds

compound	relative viability
COc1cc(N2CCC(C(N)=O)CC2)ccc1Nc1nc(N)c(Cl)c(Nc2ccccc2S(=O)(=O)C(C)C)n1 [HG-5-88-01] + NC(=O)Nc1cc(-c2cccc(F)c2)sc1C(=O)N[C@H]1CCCNC1 [AZD7762] (partner 0.2 µM)	0.377
COc1cc(N2CCC(C(N)=O)CC2)ccc1Nc1nc(N)c(Cl)c(Nc2ccccc2S(=O)(=O)C(C)C)n1 [HG-5-88-01] + Nc1ncn([C@H]2C[C@H](O)[C@@H](CO)O2)c(=O)n1 [Decitabine] (partner 2 µM)	0.672
COc1cc(N2CCC(C(N)=O)CC2)ccc1Nc1nc(N)c(Cl)c(Nc2ccccc2S(=O)(=O)C(C)C)n1 [HG-5-88-01] + COc1cc2c(Oc3ccc(NC(=O)C4(C(=O)Nc5ccc(F)cc5)CC4)cc3F)ccnc2cc1OCCCN1CCOCC1 [Foretinib] (partner 0.25 µM)	0.581
COc1cc(N2CCC(C(N)=O)CC2)ccc1Nc1nc(N)c(Cl)c(Nc2ccccc2S(=O)(=O)C(C)C)n1 [HG-5-88-01] + CC(C)C[C@H](NC(=O)[C@H](Cc1ccccc1)NC(=O)c1cnccn1)B(O)O [Bortezomib] (partner 0.002 µM)	0.388
Clc1ccc(Nc2nnc(Cc3ccncc3)c3ccccc23)cc1 [Vatalanib] + NC(=O)Nc1cc(-c2cccc(F)c2)sc1C(=O)N[C@H]1CCCNC1 [AZD7762] (partner 0.2 µM)	0.538
C[C@@H]1CN(CC(=O)Nc2ccc3c(c2)Cc2cccc(-c4cc(=O)cc(N5CCOCC5)o4)c2S3)C[C@H](C)O1 + CC1(C)CCC(c2ccc(Cl)cc2)=C(CN2CCN(c3ccc(C(=O)NS(=O)(=O)c4ccc(N[C@H](CCN5CCOCC5)CSc5ccccc5)c(S(=O)(=O)C(F)(F)F)c4)cc3)CC2)C1 [Navitoclax] (partner 0.5 µM)	0.381
COc1cc(N2CCC(C(N)=O)CC2)ccc1Nc1nc(N)c(Cl)c(Nc2ccccc2S(=O)(=O)C(C)C)n1 [HG-5-88-01] + C[C@]1(O)C[C@@H](c2nc(-c3ccc4ccc(-c5ccccc5)nc4c3)c3c(N)nccn32)C1 [Linsitinib] (partner 1 µM)	0.324
C[C@@H]1CN(CC(=O)Nc2ccc3c(c2)Cc2cccc(-c4cc(=O)cc(N5CCOCC5)o4)c2S3)C[C@H](C)O1 + CC(C)C[C@H](NC(=O)[C@H](Cc1ccccc1)NC(=O)c1cnccn1)B(O)O [Bortezomib] (partner 0.002 µM)	0.878

Taken from the supplement of paper PMC10307832.
